System: rodent lifetime carcinogenesis bioassay, tumor incidence TD50
Assay: carcinogenic potency in animals, long-term in vivo studies, CPDB compilation (AID 1745844)
Details: mouse; strain AP Alderly Park; males; in feed; site: liver; lesion: hepatocellular adenoma; dosed 78 weeks; study length 78 weeks
Active and inactive are the calls of the source. How the calls were made is not given here.
Possible outcomes: yes (1) for active, no (0) for inactive

- query smiles: "CCOC(=O)C(C)(C)Oc1ccc(Cl)cc1"
  cat: "no (0)"
- query smiles: "COC(=O)C(C)(C)Oc1ccc(-c2ccc(Cl)cc2)cc1"
  cat: "yes (1)"

* * *

Test system: rodent lifetime carcinogenesis bioassay, tumor incidence TD50
Test: carcinogenic potency in animals, long-term in vivo studies, CPDB compilation (AID 1745844)
Conditions: rat; strain Fischer 344; males; by gavage; site: thyroid gland + thyroid follicle; lesion: follicular-cell adenoma + follicular-cell carcinoma + cystadenoma, NOS; dosed 103 weeks; study length 104 weeks
quantity: TD50 (mg/kg/day)

- molecule: "CCCCC(CC)COP(=O)(OCC(CC)CCCC)OCC(CC)CCCC (stereo unspecified)"
  recorded number: 16700
